test system: UO-31; assay: NCI tumour cell line growth inhibition, 48 h
Activity calls are given as the source filed them. Rule as the data show it: active = GI50 up to about 1.1 µM and inactive = higher.
Pick one and only one: true (1) for active, false (0) for inactive

Record excerpt, results attached:
[[record]]
compound = "COc1ccc(Nc2nn3c(=O)c4c(C)c(C)sc4nc3s2)cc1"
target_or_test_system = "UO-31"
cat = "false (0)"

[[record]]
compound = "CC(=O)N1C(Nc2cnc3ccccc3c2)CCN1c1ccccc1 (configuration not stated)"
target_or_test_system = "UO-31"
cat = "false (0)"

[[record]]
compound = "N=c1oc2cc(O)ccc2cc1C(=O)NCc1ccccc1"
target_or_test_system = "UO-31"
cat = "false (0)"

[[record]]
compound = "COc1ccc(C)cc1-c1cc(Sc2ccccc2)c(-c2cc(C)ccc2OC)o1"
target_or_test_system = "UO-31"
cat = "false (0)"

[[record]]
compound = "COc1ccc2c3c1C(=O)CCC3CO2 (configuration not stated)"
target_or_test_system = "UO-31"
cat = "false (0)"


Hi team, can someone confirm the assay call for Cc1cccc2c1NC(c1c(C)[nH]c3ccccc13)C2 (configuration not stated) ?
false (0)

Hi team, can someone confirm the assay call for "O=C1c2ccccc2-c2nnc(-c3ccc([N+](=O)[O-])cc3)cc21" ?
false (0)

Hi team, can someone confirm the assay call for COC(=O)C1(CCCCl)CCCN1C(=O)OC(C)(C)C (configuration not stated) ?
false (0)

Hi team, can someone confirm the assay call for "C/C=C/C=C/CCCCCCCCCCCCC[C@]1(OC)C=C[C@@H](CC(=O)OC)OO1" ?
false (0)

Hi team, can someone confirm the assay call for "O=C1c2ccccc2C(=O)c2c1ccc1c3ccccc3n(Cc3ccccc3)c21" ?
false (0)

Hi team, can someone confirm the assay call for CC(=O)OCC1OC(N2C(c3ccccc3)=CC(c3cccs3)C(C#N)=C2S)C(OC(C)=O)C(OC(C)=O)C1OC(C)=O (configuration not stated) ?
false (0)

Hi team, can someone confirm the assay call for COC(=O)C1CC(C(=O)OC)c2nc3cc([N+](=O)[O-])ccc3nc21 (configuration not stated) ?
false (0)

###

tested on: OVCAR-3; assay: NCI tumour cell line growth inhibition, 48 h
The source made the active and inactive calls. Rule as the data show it: active = GI50 up to about 1.1 µM and inactive = higher.
measured quantity: GI50

// worked examples, GI50 included
[[record]]
molecule = "CCNc1ccc2c(c1)Cc1ccccc1-2"
measured_quantity = "GI50"
experimental_value = "29 µM (inactive)"

[[record]]
molecule = "CC(=O)O[C@H]1[C@@H]2OC(=O)[C@@](O)(CC3CCCO3)[C@@H]2CC(=O)[C@](C)(O)CC/C=C(\\C)CCC[C@@H]1C (stereo not given in full)"
measured_quantity = "GI50"
experimental_value = "63.2 µM (inactive)"

[[record]]
molecule = "c1ccc2c(c1)cc1c3[nH]c4ccccc4c3ccn21"
measured_quantity = "GI50"
experimental_value = "> 10 µM (inactive)"

[[record]]
molecule = "CN(Cc1cnc2nc(N)nc(N)c2n1)c1ccc(C(=O)NCCCC(=O)O)cc1"
measured_quantity = "GI50"
experimental_value = "> 93.5 µM (inactive)"

[[record]]
molecule = "COc1cc(C)cc2c1C(=O)C(NC(C)=O)=CC2=O"
measured_quantity = "GI50"
experimental_value = "> 100 µM (inactive)"

[[record]]
molecule = "CC(C)CC(=O)NS(=O)(=O)c1ccccc1"
measured_quantity = "GI50"
experimental_value = "> 100 µM (inactive)"


Input "O=C(O)c1cc2ccccc2c(/N=N/c2ccccc2)c1O" . Output GI50: 26.2 µM (inactive)

Input CCCNC(=O)CCC(C)[C@H]1CCC2C3C(C[C@H](OC(C)=O)[C@@]21C)[C@@]1(C)CCC2(C[C@H]1C[C@H]3OC(C)=O)OOC1(CCC(C)CC1)OO2 (stereo not given in full) . Output GI50: 4.78 µM (inactive)

Input "CCOC(=O)/C(C(=O)Nc1ccc(Cl)cc1)=C(/N)N1CCCC1" . Output GI50: > 100 µM (inactive)

Input "CC(C)COP(=O)(OCC(C)C)C(NS(=O)(=O)c1ccccc1)(C(F)(F)F)C(F)(F)F" . Output GI50: 4.82 µM (inactive)

Input Cc1ccc2c(c1)Nc1cc(C(F)(F)F)ccc1[PH]2=O (stereo not given) . Output GI50: 30 µM (inactive)

Input "Cc1c(OCc2ccccc2)c(=O)ccn1CCc1c[nH]c2ccccc12" . Output GI50: 18.5 µM (inactive)

Input "O=C1c2ccccc2C(=O)c2c1ccc1c3ccccc3n(Cc3ccccc3)c21" . Output GI50: > 100 µM (inactive)

Input "O=C(Nc1ccccc1C(=O)NC(=O)c1ccccc1NC(=O)c1ccccc1)c1ccccc1" . Output GI50: 3.29 µM (inactive)

Input "COP(=O)(OC)[C@H](O)[C@H]1C[C@@H]1c1ccccc1" . Output GI50: > 100 µM (inactive)

Input "NCCCc1c(-c2ccccc2)[nH]c(N)nc1=O" . Output GI50: > 100 µM (inactive)

Input Cc1cc(Cl)ccc1NC(=O)CCCC(=O)C1C/C(=N/O)CC/C1=N\O (stereo not given) . Output GI50: > 100 µM (inactive)

Input "O=C(CN1C(=O)c2ccccc2C1=O)NC1(C(=O)O)CCCC1" . Output GI50: > 100 µM (inactive)

Input "COc1ccc2[nH]c3c(C)c4ccnc(NCCCN(C)CCCNC(=O)NCCCN(C)CCCNc5nccc6c(C)c7[nH]c8ccc(OC)cc8c7c(C)c56)c4c(C)c3c2c1" . Output GI50: 1.29 µM (inactive)

Input CCOP(=O)(OCC)OC1CC(n2cnc3c(N(CC)CC)ncnc32)OC1CO[Si](C)(C)C(C)(C)C (stereo not given) . Output GI50: 20.3 µM (inactive)

###

system: SR; assay: NCI tumour cell line growth inhibition, 48 h
The source made the active and inactive calls. No stated cut-off is given here; in the data, active = GI50 up to about 1.1 µM and inactive = higher.
Pick one and only one: active, inactive

Record excerpt, results attached:
[[record]]
compound = "O=Cc1cc(C(=O)OCc2ccccc2)n(S(=O)(=O)c2ccccc2)c1"
target_or_test_system = "SR"
cat = "inactive"

[[record]]
compound = "O=NN(CCCl)C(=O)N[C@H]1CC[C@@H](C(=O)O)CC1"
target_or_test_system = "SR"
cat = "inactive"

[[record]]
compound = "CCOC(=O)C[C@@H]1C2(C=C[C@@]13CO3)OCC(C)(C)CO2"
target_or_test_system = "SR"
cat = "inactive"

[[record]]
compound = "CCOC(=O)N/N=C(\\Cc1ccc([N+](=O)[O-])cc1)OCC"
target_or_test_system = "SR"
cat = "inactive"

[[record]]
compound = "COCOc1ccc(C(=O)C(C)c2ccc(OCOC)cc2OCOC)c(O)c1 (configuration not stated)"
target_or_test_system = "SR"
cat = "inactive"

[[record]]
compound = "CC(C)CC1c2[nH]c3ccccc3c2C[C@H]2C(=O)NC(CCCCNC(=O)OC(C)(C)C)C(=O)N12 (some centres not stated)"
target_or_test_system = "SR"
cat = "inactive"

[[record]]
compound = "COC1C=CC(O)C(CO)O1 (configuration not stated)"
target_or_test_system = "SR"
cat = "inactive"

[[record]]
compound = "CCN(CC)C1Oc2cc3c(cc2C(c2cccc(OC)c2OC)C1C)OCO3 (configuration not stated)"
target_or_test_system = "SR"
cat = "active"

[[record]]
compound = "OC(c1cccnc1)C(F)(F)c1nc2ccccc2o1 (configuration not stated)"
target_or_test_system = "SR"
cat = "inactive"

[[record]]
compound = "CN(Cc1cnc2nc(N)nc(N)c2n1)c1ccc(C(=O)NCCCC(=O)O)cc1"
target_or_test_system = "SR"
cat = "inactive"


Hi team, can someone confirm the assay call for "C/C(=C/c1ccccc1)CN(C(=O)/C=C\Sc1ccccc1)C(C)(C)C" ?
inactive

Hi team, can someone confirm the assay call for COC1/C=C\C=C(/C)C(=O)NC2=CC(=O)C(O)=C(CC(C)CC(OC)C(O)C(C)/C=C(\C)C1OC(N)=O)C2=O (configuration not stated) ?
active

Hi team, can someone confirm the assay call for C=C(C)C1CCC2(C)CC1c1c(c(C)cc3c1[nH]c1ccccc13)O2 (configuration not stated) ?
inactive

Hi team, can someone confirm the assay call for CC(C)(C)OC(=O)CC(NC(=O)OC(C)(C)C)C(=O)N[C@@H]1CCCC[C@H]1C(=O)OCc1ccccc1 (some centres not stated) ?
inactive

Hi team, can someone confirm the assay call for "CN(CCNCc1cn(C)c2c1ccc1ccccc12)CCNCc1cn(C)c2c1ccc1ccccc12" ?
active

Hi team, can someone confirm the assay call for "CC1=C(C#N)C(N)=C2C(C)=C(C#N)C(N)=C12" ?
inactive

Hi team, can someone confirm the assay call for "COc1ccc(-c2cc(=O)c3c(OC)cccc3o2)c(OC)c1OC" ?
inactive

Hi team, can someone confirm the assay call for BrC1=CC=C2NC=CC3=CC=NC1C32 (configuration not stated) ?
inactive

###

system: A549; assay: NCI tumour cell line growth inhibition, 48 h
Counter-ions that a name gives are not always drawn. The source made the active and inactive calls. No stated cut-off is given here; in the data, active = GI50 up to about 1.1 µM and inactive = higher.
Pick one and only one: YES (active), NO (inactive)

[[record]]
compound = "OC12CC3c4ccccc4NC3C3Oc4cccc5c4C31CCN(CC1CC1)C2C5 (centres undefined)"
cat = "NO"

[[record]]
compound = "c1ccc(C2SCc3nc4cc5ccccc5cc4n32)cc1 (centres undefined)"
cat = "NO"

[[record]]
compound = "CCOC(=O)CCC(C(=O)OCC)n1nnc2ccc(Nc3c(C)[n+]([O-])c4cc(Cl)ccc4[n+]3[O-])cc21 (centres undefined)"
cat = "NO"

[[record]]
compound = "COc1cccc2c1C(=O)c1c(O)c3c(c(O)c1C2=O)C[C@@](O)(/C(C)=N\\O)C[C@@H]3OC1CC(N)C(O)C(C)O1 (some centres undefined)"
cat = "YES"

[[record]]
compound = "O=C(c1ccccc1)C(c1ccccc1)C1(O)C(=O)Nc2c(Cl)ccc(Cl)c21 (centres undefined)"
cat = "NO"

[[record]]
compound = "CO[C@H]1C[C@](C)(O)Cc2cc3c(c(O)c21)C(=O)c1c(O)cc2c(c1C3=O)O[C@@H]1O[C@@]2(C)[C@H](O)[C@@H](N(C)C)[C@@H]1O"
cat = "YES"


Continue with the compound presented below.
Hi team, can someone confirm the assay call for CN(C)CCOC(c1ccccc1)c1ccccc1 [DIPHENHYDRAMINE HYDROCHLORIDE] ?
NO
